Values compiled from patent US20160311887A1.

Biological target: T1, activated Protein C (APC) (human, UniProt P04070 43-197; P04070 212-461)
T1 construct: also called human plasma APC
T1 sequence (P04070 43-197, chain 1 of 2): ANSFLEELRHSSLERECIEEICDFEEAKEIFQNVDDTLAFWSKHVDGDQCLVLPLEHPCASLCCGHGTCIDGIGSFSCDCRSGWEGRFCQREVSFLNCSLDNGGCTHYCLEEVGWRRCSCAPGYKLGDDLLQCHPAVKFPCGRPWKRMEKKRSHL
T1 sequence (P04070 212-461, chain 2 of 2): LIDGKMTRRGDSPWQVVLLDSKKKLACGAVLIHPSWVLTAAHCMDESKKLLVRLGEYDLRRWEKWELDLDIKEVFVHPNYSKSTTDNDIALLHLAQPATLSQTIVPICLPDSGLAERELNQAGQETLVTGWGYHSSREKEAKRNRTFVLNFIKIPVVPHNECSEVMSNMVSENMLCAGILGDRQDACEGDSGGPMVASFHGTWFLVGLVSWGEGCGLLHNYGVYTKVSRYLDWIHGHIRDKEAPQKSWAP
Assay: pseudo-first-order inhibition kinetics (repeated from Table 1)
Reported second-order rate constant of inhibition values for the following binders.
Record the value in M⁻¹ s⁻¹, omitting the unit from your answer.

Check out these entries, answers already filled in.
{"columns": ["binder", "units_symbol", "result"],
 "data": [
  ["A22 WT PCI (other, Serpin; E. coli, SUMO tag removed; also called A22 wild-type (WT) PCI) APSSRRDFTFDLYRALASAAPSQNIFFSPVSISMSLAMLSLGAGSSTKMQILEGLGLNLQKSSEKELHRGFQQLLQELNQPRDGFQLSLGNALFTDLVVDLQDTFVSAMKTLYLADTFPTNFRDSAGAMKQINDYVAKQTKGKIVDLLKNLDSNAVVIMVNYIFFKAKWETSFNHKGTQEQDFYVTSETVVRVPMMSREDQYHYLLDRNLSCRVVGVPYQGNATALFILPSEGKMQQVENGLSEKTLRKWLKMFKKRQLELYLPKFSIEGSYQLEKVLPSLGISNVFTSHADLSGISNHSNIQVSEMVHKAVVEVDESGTRAAAATGTIFTFRSARLNSQRLVFNRPFLMFIVDNNILFLGKVNRP", "M⁻¹ s⁻¹", 680],
  ["FL α1AT Pitts C232S (other, Serpin; E. coli, SUMO tag removed; also called α1-antitrypsin Pittsburgh) SDPQGDAAQKTDTSHHDQDHPTFNKITPNLAEFAFSLYRQLAHQSNSTNIFFSPVSIATAFAMLSLGTKADTHDEILEGLNFNLTEIPEAQIHEGFQELLRTLNQPDSQLQLTTGNGLFLSEGLKLVDKFLEDVKKLYHSEAFTVNFGDTEEAKKQINDYVEKGTQGKIVDLVKELDRDTVFALVNYIFFKGKWERPFEVKDTEEEDFHVDQVTTVKVPMMKRLGMFNIQHSKKLSSWVLLMKYLGNATAIFFLPDEGKLQHLENELTHDIITKFLENEDRRSASLHLPKLSITGTYDLKSVLGQLGITKVFSNGADLSGVTEEAPLKLSKAVHKAVLTIDEKGTEAAGAMFLEAIPRSIPPEVKFNKPFVFLMIEQNTKSPLFMGKVVNPTQK", "M⁻¹ s⁻¹", 108000]
]}

Exercise: Tell me measured second-order rate constant of inhibition for FL α1AT Pitts C232S P2KP1′K (other, E. coli, SUMO tag removed; also called P2KP1′K α1AT; P2KP1′K mutant of α1AT Pitts) SDPQGDAAQKTDTSHHDQDHPTFNKITPNLAEFAFSLYRQLAHQSNSTNIFFSPVSIATAFAMLSLGTKADTHDEILEGLNFNLTEIPEAQIHEGFQELLRTLNQPDSQLQLTTGNGLFLSEGLKLVDKFLEDVKKLYHSEAFTVNFGDTEEAKKQINDYVEKGTQGKIVDLVKELDRDTVFALVNYIFFKGKWERPFEVKDTEEEDFHVDQVTTVKVPMMKRLGMFNIQHSKKLSSWVLLMKYLGNATAIFFLPDEGKLQHLENELTHDIITKFLENEDRRSASLHLPKLSITGTYDLKSVLGQLGITKVFSNGADLSGVTEEAPLKLSKAVHKAVLTIDEKGTEAAGAMFLEAIKRKIPPEVKFNKPFVFLMIEQNTKSPLFMGKVVNPTQK please.
Key: 15100
